Test system: HS 578T breast
Procedure text: NCI-60 one-dose screen, 48 h
Test context: 10 µM unless noted
The panel holds about 83,000 compounds, 20% with a hit somewhere; the sample as a whole holds those more often. Activity calls are given as the source filed them. How the source made its calls: active means growth percent below 10; inactive means the rest.
Field 'call' accepts active, inactive

Problem: Could you check what this test reported for `CC[C@H](C)[C@H](NC(=O)[C@H]1CCCCN1C)C(=O)N(C)[C@H](C[C@@H](OC(C)=O)c1nc(C(=O)N[C@@H](Cc2ccccc2)C[C@H](C)C(=O)O)cs1)C(C)C` ?
Solution: inactive

Problem: # iterate: `O=[N+]([O-])c1ccc(P(=O)(O)O)cc1`
Solution: inactive
